assay: Cytotoxicity in HeLa cells (ATP content, ATPlite kit); format: cell-based; settings: human, TOX HELA CC50
CC50 at 3 days vs 20 µM: less than gives yes (1); not less than gives no (0).

{"COMPOUND": "COc1cc(C(=O)NC[C@](O)(c2cc(C(C)(C)O)c(F)c(-c3ccc(F)cc3)n2)C2CC2)cc2cc(C)cnc12 [compound 206]", "LABEL VALUE": "yes (1)"}
{"COMPOUND": "Cc1cc2cc(C(=O)NC[C@](O)(c3cc(C(C)(C)O)c(F)c(-c4ccc(F)cc4)n3)C(F)F)cc(OC3CC3)c2nn1 [compound 308]", "LABEL VALUE": "no (0)"}
{"COMPOUND": "COc1cc(C(=O)NCC(O)(c2cc(C(C)(C)O)c(F)c(-c3cccc(F)c3)n2)C2CC2)cc2cc(C)nnc12 (single isomer, unassigned; (-)) [compound 255]", "LABEL VALUE": "no (0)"}
{"COMPOUND": "COc1cc(C(=O)NC[C@](O)(c2cc(C(C)(C)O)c(F)c(-c3ccc(F)cc3)n2)C(C)C)cc2cc(C(F)F)nnc12 [compound 285]", "LABEL VALUE": "yes (1)"}
{"COMPOUND": "COc1cc(C(=O)NC[C@](O)(c2cc(C(C)(C)O)c(F)c(-c3ccc(F)cc3)n2)C(C)C)cc2cc(C3CC3)nnc12 [compound 283]", "LABEL VALUE": "yes (1)"}
{"COMPOUND": "Cc1cnc2c(OC3CC3)cc(C(=O)NC[C@](O)(c3cc(C(C)(C)O)c(F)c(-c4ccc(F)cc4)n3)C(F)(F)F)cc2c1 [compound 272]", "LABEL VALUE": "yes (1)"}
{"COMPOUND": "COc1cc(C(=O)NC[C@@](O)(c2nc(-c3ccc(F)cc3)cc(C(C)(C)O)c2F)C(F)(F)F)cc2cc(C)nnc12 [compound 280]", "LABEL VALUE": "yes (1)"}
{"COMPOUND": "Cc1cnc2c(OC3CC3)cc(C(=O)NC[C@](O)(c3nc(-c4ccc(F)cc4)c(Cl)c(C(C)(C)O)c3F)C(F)(F)F)cc2c1 [compound 221]", "LABEL VALUE": "no (0)"}
{"COMPOUND": "COc1cc(C(=O)NC[C@](O)(c2cc(C(C)(C)O)c(F)c(-c3ccc(F)cc3)n2)C(F)(F)F)cc2cc(C(F)F)nnc12 [compound 266]", "LABEL VALUE": "no (0)"}
{"COMPOUND": "COc1cc(C(=O)NC[C@](O)(c2nc(-c3ccc(F)cc3)c(Cl)c(C(C)(C)O)c2F)C(F)(F)F)cc2cc(C)cnc12 [compound 202]", "LABEL VALUE": "no (0)"}
{"COMPOUND": "Cc1cc2cc(C(=O)NCC(O)(c3cc(C(C)(C)O)c(Cl)c(-c4ccc(F)cc4)n3)C(F)(F)F)cc(OC(F)(F)F)c2nn1 (single isomer, unassigned; (-)) [compound 261]", "LABEL VALUE": "yes (1)"}
{"COMPOUND": "COc1cc(C(=O)NC[C@](O)(c2cc(C(C)(C)O)cc(-c3ccc(F)cc3)n2)C(C)(F)F)cc2cc(C)nnc12 [compound 309]", "LABEL VALUE": "no (0)"}
{"COMPOUND": "COc1cc(C(=O)NC[C@@](O)(c2cc(C(C)(C)NS(C)(=O)=O)c(Cl)c(-c3ccc(F)cc3)n2)C(F)(F)F)cc2cc(C)nnc12 [compound 233]", "LABEL VALUE": "no (0)"}
{"COMPOUND": "COc1cc(C(=O)NC[C@](O)(c2cc(C(C)(C)O)c(Cl)c(-c3ccc(F)cc3)n2)C(F)(F)F)cc2cc(C)nnc12 [compound 232]", "LABEL VALUE": "no (0)"}
{"COMPOUND": "COc1cc(C(=O)NC[C@](O)(c2cc(C(C)(C)O)c(F)c(-c3ccc(Cl)cc3)n2)C2CC2)cc2cc(C)nnc12 [compound 278]", "LABEL VALUE": "no (0)"}
{"COMPOUND": "COc1cc(C(=O)NC[C@](O)(c2nc(-c3ccc(F)cc3)c(F)c(C(C)(C)O)c2F)C(F)(F)F)cc2cc(C3CC3)cnc12 [compound 228]", "LABEL VALUE": "yes (1)"}
{"COMPOUND": "COc1cc(C(=O)NC[C@](O)(c2nc(-c3ccc(F)cc3)c(F)c(C(C)(C)O)c2F)C(F)(F)F)cc2cc(C)c(F)nc12 [compound 211]", "LABEL VALUE": "no (0)"}
{"COMPOUND": "COc1cc(C(=O)NC[C@@](O)(c2cc(C(C)(C)O)c(F)c(-c3ccc(F)cc3)n2)C2C[C@@H]2F)cc2cc(C)nnc12 (single isomer, unassigned) [compound 301]", "LABEL VALUE": "no (0)"}
{"COMPOUND": "COc1cc(C(=O)NC[C@](O)(c2cc(C(C)(C)O)c(Cl)c(-c3ccc(F)cc3)n2)C(F)(F)F)cc2cc(C(F)(F)F)cnc12 [compound 328]", "LABEL VALUE": "yes (1)"}
{"COMPOUND": "COc1cc(C(=O)NC[C@](O)(c2cc(C(C)(C)O)c(F)c(-c3ccc(F)cc3)n2)C(F)(F)F)cc2cc(CF)cnc12 [compound 324]", "LABEL VALUE": "yes (1)"}
{"COMPOUND": "COc1cc(C(=O)NC[C@](O)(c2cc(C(C)(C)O)c(Cl)c(-c3ccc(F)cc3)n2)C(F)(F)F)cc2cc(C(F)(F)F)nnc12 [compound 277]", "LABEL VALUE": "yes (1)"}
{"COMPOUND": "COc1cc(C(=O)NC[C@](O)(c2cc(C(C)(C)O)c(Cl)c(-c3ccc(F)cc3)n2)C2CC2)cc2cc(C(F)(F)F)cnc12 [compound 331]", "LABEL VALUE": "yes (1)"}
{"COMPOUND": "COc1cc(C(=O)NCC(O)(c2cc(C(C)(C)O)c(F)c(-c3ccc(C4CC4)cc3)n2)C2CC2)cc2cc(C)nnc12 (single isomer, unassigned; (-)) [compound 254]", "LABEL VALUE": "yes (1)"}
{"COMPOUND": "COc1cc(C(=O)NC[C@](O)(c2cc(C(C)(C)O)c(F)c(-c3ccc(F)cc3)n2)C(F)F)cc2cc(C(F)F)nnc12 [compound 292]", "LABEL VALUE": "no (0)"}

----------
experiment: Cytotoxicity in HeLa cells (ATP content, ATPlite kit); type: cell-based; conditions: human, TOX HELA CC50
PARAMETER: CC50 at 3 days (µM)

{"COMPOUND": "[2H]C([2H])([2H])Oc1cc(C(=O)NC[C@](O)(c2cc(C(C)(C)O)c(F)c(-c3ccc(F)cc3)n2)C2CC2)cc2cc(C)nnc12 [compound 290]", "VALUE UNIT": "µM", "MEASURED RESULT": 28}
{"COMPOUND": "COc1cc(C(=O)NC[C@](O)(c2cc(C(C)(C)O)c(F)c(-c3ccc(F)cc3)n2)C(F)(F)F)cc2cc(C)cnc12 [compound 322]", "VALUE UNIT": "µM", "MEASURED RESULT": 15}
{"COMPOUND": "Cc1cnc2c(OC3CC3)cc(C(=O)NC[C@](O)(c3cc(C(C)(C)O)c(Cl)c(-c4ccc(F)cc4)n3)C(F)(F)F)cc2c1 [compound 219]", "VALUE UNIT": "µM", "MEASURED RESULT": 27}
{"COMPOUND": "Cc1cc2cc(C(=O)NC[C@](O)(c3cc(C(C)(C)O)c(F)c(-c4ccc(F)cc4)n3)C(F)(F)F)cc(OC(F)F)c2nn1 [compound 312]", "VALUE UNIT": "µM", "MEASURED RESULT": 13}
{"COMPOUND": "COc1cc(C(=O)NC[C@](O)(c2cc(C(C)(C)O)c(F)c(-c3ccc(F)cc3)n2)C2CC2)cc2cc(C)c(F)nc12 [compound 216]", "VALUE UNIT": "µM", "MEASURED RESULT": 21}
{"COMPOUND": "COc1cc(C(=O)NC[C@](O)(c2cc(C(C)(C)O)c(F)c(-c3ccc(F)cc3)n2)C2CC2)cc2cc(C)nnc12 [compound 252]", "VALUE UNIT": "µM", "MEASURED RESULT": 43}
{"COMPOUND": "Cc1cc2cc(C(=O)NC[C@](O)(c3cc(C(C)(C)O)c(F)c(-c4ccc(F)cc4)n3)C3CC3)cc(OC3CC3)c2nn1 [compound 265]", "VALUE UNIT": "µM", "MEASURED RESULT": 39}
{"COMPOUND": "COc1cc(C(=O)NCC(O)(c2cc(C(C)(C)NC(C)=O)c(F)c(-c3ccc(F)cc3)n2)C(F)(F)F)cc2cc(C)nnc12 (single isomer, unassigned; (-)) [compound 235]", "VALUE UNIT": "µM", "MEASURED RESULT": 25}
{"COMPOUND": "COc1cc(C(=O)NC[C@@](O)(c2cc(C(C)(C)O)c(F)c(-c3ccc(F)cc3)n2)C2(F)CC2)cc2cc(C)nnc12 [compound 297]", "VALUE UNIT": "µM", "MEASURED RESULT": 45}
{"COMPOUND": "COc1cc(C(=O)NCC(O)(c2cc(C(C)(C)O)c(F)c(-c3ccc(F)cc3)n2)[C@H]2CC2(F)F)cc2cc(C)nnc12 (stereo in doubt) [compound 319]", "VALUE UNIT": "µM", "MEASURED RESULT": 6.1}
{"COMPOUND": "Cc1cnc2c(OC3CC3)cc(C(=O)NC[C@](O)(c3cc(C(C)(C)O)c(Cl)c(-c4ccc(F)cc4)n3)C3CC3)cc2c1 [compound 222]", "VALUE UNIT": "µM", "MEASURED RESULT": 27}
{"COMPOUND": "COc1cc(C(=O)NC[C@](O)(c2cc(C(C)(C)O)c(F)c(-c3ccc(F)cc3)n2)C(C)(F)F)cc2cc(C)nnc12 [compound 313]", "VALUE UNIT": "µM", "MEASURED RESULT": 42}
{"COMPOUND": "COc1cc(C(=O)NC[C@](C)(O)c2cc(C(C)(C)O)c(Cl)c(-c3ccc(F)cc3)n2)cc2cc(C)nnc12 [compound 229]", "VALUE UNIT": "µM", "MEASURED RESULT": 44}
{"COMPOUND": "COc1cc(C(=O)NC[C@](O)(c2cc(C(C)(C)O)c(Cl)c(-c3ccc(F)cc3)n2)C(F)(F)F)cc2cc(C(F)F)cnc12 [compound 327]", "VALUE UNIT": "µM", "MEASURED RESULT": 15}
{"COMPOUND": "COc1cc(C(=O)NC[C@](O)(c2cc(C(C)(C)O)c(Cl)c(-c3ccc(F)cc3)n2)C2CC2)cc2cc(C(F)F)cnc12 [compound 226]", "VALUE UNIT": "µM", "MEASURED RESULT": 14}
{"COMPOUND": "[2H]C([2H])([2H])c1cc2cc(C(=O)NC[C@](O)(c3cc(C(C)(C)O)c(F)c(-c4ccc(F)cc4)n3)C(F)(F)F)cc(OC)c2nn1 [compound 311]", "VALUE UNIT": "µM", "MEASURED RESULT": 42}
{"COMPOUND": "COc1cc(C(=O)NCC(O)(c2cc(C(C)(C)O)c(F)c(-c3ccc(F)cc3)n2)C(F)F)cc2cc(C)c(F)nc12 (single isomer, unassigned; (+)) [compound 213]", "VALUE UNIT": "µM", "MEASURED RESULT": 31}
{"COMPOUND": "[2H]C([2H])(NC(=O)c1cc(OC)c2nnc(C)cc2c1)[C@@](O)(c1cc(C(C)(C)O)c(F)c(-c2ccc(F)cc2)n1)C1CC1 [compound 315]", "VALUE UNIT": "µM", "MEASURED RESULT": 27}
